Subject of test: Nucleoside Transporter (Homo sapiens, UniProt Q99808)
Sequence (Q99808 1-456): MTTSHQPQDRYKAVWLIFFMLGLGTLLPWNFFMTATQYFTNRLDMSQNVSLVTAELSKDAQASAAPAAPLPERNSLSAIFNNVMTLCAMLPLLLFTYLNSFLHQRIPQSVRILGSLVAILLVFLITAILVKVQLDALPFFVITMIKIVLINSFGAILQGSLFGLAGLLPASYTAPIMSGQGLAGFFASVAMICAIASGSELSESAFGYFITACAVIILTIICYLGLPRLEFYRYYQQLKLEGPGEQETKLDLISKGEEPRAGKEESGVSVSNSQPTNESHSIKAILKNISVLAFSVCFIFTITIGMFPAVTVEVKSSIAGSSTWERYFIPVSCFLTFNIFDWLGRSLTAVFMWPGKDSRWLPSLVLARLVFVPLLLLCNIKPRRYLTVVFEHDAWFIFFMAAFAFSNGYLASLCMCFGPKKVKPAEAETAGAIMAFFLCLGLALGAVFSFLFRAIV
Assay context: pH 7.4
Would you kindly list Ki for each of these compounds?
Numbers only, in nM.

// solved cases for Ki follow
[[record]]
compound = "OC[C@H]1O[C@@H](n2c(N3CCCC3)nc3c(SCc4ccccc4)ncnc32)[C@H](O)[C@@H]1O [Example 11, 6-benzyl-8-pyrrolidino-thioinosine]"
unit_text = "nM"
readout_value = 410

[[record]]
compound = "OC[C@H]1O[C@@H](n2c(NC3CCCC3)nc3c(SCc4ccccc4)ncnc32)[C@H](O)[C@@H]1O [Example 9]"
unit_text = "nM"
readout_value = 0.64

[[record]]
compound = "O=[N+]([O-])c1ccc(CSc2ncnc3c2nc(NC2CCCCC2)n3Cc2ccccc2)cc1 [Example 15]"
unit_text = "nM"
readout_value = 55


Kindly give each listed record's Ki.
1. CCC(C)CNc1nc2c(SCc3ccccc3)ncnc2n1[C@@H]1O[C@H](CO)[C@@H](O)[C@H]1O (stereo partly drawn) [Example 7]
2. O=[N+]([O-])c1ccc(CSc2ncnc3c2nc(NC2CCCC2)n3Cc2ccccc2)cc1 [Example 14]
3. CCCNc1nc2c(SCc3ccccc3)ncnc2n1[C@@H]1O[C@H](CO)[C@@H](O)[C@H]1O [Example 3, 6-benzyl-8-(n-propylamino)-thioinosine]
4. OC[C@H]1O[C@@H](n2c(N3CCCCC3)nc3c(SCc4ccccc4)ncnc32)[C@H](O)[C@@H]1O [Example 12, 6-benzyl-8-piperidino-thioinosine]
5. OC[C@H]1O[C@@H](n2c(NC3CC3)nc3c(SCc4ccccc4)ncnc32)[C@H](O)[C@@H]1O [Example 8]

Reply:
1: 3.6; 2: 29; 3: 5.3; 4: 744; 5: 3

Task item: Give Nucleoside Transporter (Homo sapiens, UniProt Q99808) Ki for CCNc1nc2c(SCc3ccccc3)ncnc2n1[C@@H]1O[C@H](CO)[C@@H](O)[C@H]1O [Example 2, 6-benzyl-8-ethylamino-thioinosine]
Reply: 9.5

Entry source: patent US7781432B2
